Some binders, each annotated with its measured Ec50, intracellular cAMP.
# studyTarget: T1, rat melanocortin-3 receptor (rat, UniProt P32244 1-323)
# T1 chain: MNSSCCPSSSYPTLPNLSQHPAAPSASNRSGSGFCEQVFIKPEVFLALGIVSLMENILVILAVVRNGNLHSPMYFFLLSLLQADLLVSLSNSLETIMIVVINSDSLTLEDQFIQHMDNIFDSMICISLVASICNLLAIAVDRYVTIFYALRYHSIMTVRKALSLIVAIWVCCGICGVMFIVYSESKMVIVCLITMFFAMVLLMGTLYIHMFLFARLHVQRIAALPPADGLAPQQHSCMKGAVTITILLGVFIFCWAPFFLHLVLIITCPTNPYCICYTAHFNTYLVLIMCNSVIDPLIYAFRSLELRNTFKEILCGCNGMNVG
# experimentDescription: cell-based or functional assay
No end group written: not given here.
Numeric answer only, unit nM assumed.

Completed entries (count: 2):
- binder: "MEHFRWG (peptide, UniProt P01189 141-147, looked up, domain: ACTH4-10) [ACTH4-10]"
  unitAbbreviation: "nM"
  Ec50, intracellular cAMP: 100
- binder: "YVMGHFRWDRFGRRNSSSSGSSGAGQ (peptide, UniProt P01189 77-102, looked up, ends and bridges not checked) [γ3-MSH]"
  unitAbbreviation: "nM"
  Ec50, intracellular cAMP: 6

Identify measured Ec50, intracellular cAMP associated with SYSMEHFRWGKPVGKKRRPVKVYPNGAEDESAEAFPLEF (peptide, UniProt P01189 138-176, looked up) [adrenocorticotropic hormone] 4

Identify Ec50, intracellular cAMP associated with the binder YVMGHFRWDRF (peptide, UniProt P01189 77-87, looked up, ends and bridges not checked) [γ1-MSH] 3

Specify reported Ec50, intracellular cAMP for the binder shown: SYSMEHFRWGKPV (peptide, UniProt P01189 138-150, looked up, ends and bridges not checked, domain: αMSH; also called αMSH; α-MSH) [α-melanocyte stimulating hormone] 4
